TEST_NAME: yeast display, Sf9 membrane polyspecificity reagent, FACS + sequencing; frameworks hold sequencing errors
MEASURED_ATTRIBUTE: polyreactivity (PSR sort gate)

Below, 7 sequences whose answers are already recorded.
RESIDUES	polyreactivity (PSR sort gate)
QVQLVESGGGLVQAGGSLRLSCAASGSIFGYNDMGWYRQAPGKERELVATITWGGGRTRYADSVKGRFTISRDNAKNTVYFQMNSLKPEDTAVYYCAAGYYRLWVRYDYWGQGTQVTVSS	low polyreactivity
QVQLVESGGGLVQAGGSLRLSCAASGRIFVYNAMGWYRQAPGKEREFVAAISWDGASTYYADSVKGRFTISRDNAKNTVYLQMNSLKPEDTAVYYCAASYRRKLYNDYWGQGTQVTVSS	low polyreactivity
QVQLVESGGGLVQAGGSLRLSCAASGSIFDLYAMGWYRQAPGKERELVAGISYSGGSTYYADSVKGRFTISRDNAKNTVYLQMNSLKPEDTAVYYCAVDLGYRLGRFDYWGQGTQVTVSS	low polyreactivity
QVQLVESGGGLVQAGCSLRLSCAASGSIFAAYPMGWYRQAPGKERELVAAISRSCGSTYYADSVKGRFTISRDNAKNTVYLQMNSLKPEDTAVYYCAADTYGYRHDNYDYWGQGTQVTVSS	low polyreactivity
QVQLVESGGGLVQAGGSLRLSCSASGRTFSVYAMGSYRQAPGKERELVAGITSGGSTNYADSVKGRFTISRDNAKNTVYLQMNSLKPEDTAVYYCDAENVYAGFGFVSIVDYWVQGTQVTVSS	low polyreactivity
QVQLVESVGVLVQAGGSLRLSCAASGITFSSYAMGWYRQAPGKERELVAAITRTGGRTYYADSVKGRFTISRDNAKNTVYLQMNRLKPEDTAVYYCAAYYIAYYYWGQGTQVTVSS	high polyreactivity
QVQLVESGGGLVQAGGSLRLSCAASGSTFPWNAMGWYSQAPGKEREMVAAINYGNGSTYYADSVKGRFTISRDNAKNTVYLQMNSLKPEDTAVYYCNADYTGTRTDSVSPEYEYWGQGTQVTVSS	low polyreactivity

I'd like to know its polyreactivity (PSR sort gate). The sequence in question is QVQLVESGGGLVQAGGSLRVSCAPSGIIFGGNVMGWYRQAPGKERELVAGITSTGGRTYYADSVKGRFTISRDNAKNTVYLQMNSLKPEDTAVYYCAAVSTLVRGNFNRIRYGYWGHGTQVTVSS
high polyreactivity

---

TEST_NAME: yeast display, Sf9 membrane polyspecificity reagent, FACS + sequencing; frameworks hold sequencing errors
MEASURED_ATTRIBUTE: polyreactivity (PSR sort gate)

>>> df
                                   residues        assay_result
0  QVQLVESGGGLVQAGGSLRLSCAASGFILPVYAMGWYRQAPGTERELVAAISSGGSTNYADSVKGRFTISRDNAKNTVYLQMNSLKPEDTEVYYCNKVDWYFGGYKYDYWGQGTQVTVSS  low polyreactivity
1  QVQLVESGGGLVQAGGSLRLSCAASGSILLAYVMGWYRPAPGKERELVAAISSGDDTKYADSVKGRFTISRDNAMNTVYLQMNSLKPEDTAVYYCNAYTLDYPYHRFGYWGQGTQVTVSS  low polyreactivity
2  QVQLVESGGGLVQAGGSLRLSCSASGSIFSENTMGGYRQAPGKKRELVADITSGGSTNYADSVKGRFTISRDNAKNTVYLQMNSLKPEDTAVYYCAADYNGEYDYWGQGTQVTVSS  low polyreactivity
